Ref: the supplement of paper PMC6757056

B1: library; a variant is named by its letters at N, in order (parent)
chain: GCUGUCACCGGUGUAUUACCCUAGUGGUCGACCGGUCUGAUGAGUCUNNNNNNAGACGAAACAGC

# Variants of: B1
# MEASUREMENT DESCRIPTION: FACS-Seq fitted mean relative fluorescence mCherry/BFP with ligand (log10 relative fluorescence); ligand: hypoxanthine (xanthine aptamer); ligand concentration (+) FACS-Seq: 5 mM; higher = higher reporter protein expression
# SETTINGS: HEK293T, ligand present: yes
PROPERTY NAME: FACS-Seq fitted mean (log10)

Record excerpt, results attached:
   variant_spec  reported_result
0        AGACCC            0.516
1        UCAACG            0.585
2        UGAGCC            0.805
3        ACGGGC            0.495
4        UUAUUA            0.398
5        UCACCA            0.834
6        GGAUAC            0.623
7        ACUAGG            0.657

For the next question, use this variant.
Give its FACS-Seq fitted mean (log10) value. Item: AUACGC
0.519
